The entries below are paired with their reported growth.
Test system: SF-268 CNS
Assay: NCI-60 one-dose screen, 48 h (100 = growth as untreated, 0 = no growth, -100 = all killed)
Conditions: 10 µM unless noted
Procedure: Cells are grown in 96 well plates and exposed to the test compound for 48 hours. Compounds are tested at a single concentration, which is 10^-5 M for most compounds. The reported endpoint is percent growth (GI% or GIPRCNT), where numbers from 0 - 100% represent growth inhibition, and numbers from -100% - 0 represent cell death. For example, a value of 40 represents 60% growth inhibition. A value of 0 means no net growth occurred over the course of the experiment. […]
The panel holds about 83,000 compounds, 20% with a hit somewhere; the sample as a whole holds those more often.
Kindly provide the numeric value in % only, without the unit symbol.

In the examples that follow, each entry is paired with its recorded growth.
Compound | Parameter measured | Experimental value
O=C(CSc1nc2ccccc2c(=O)n1-c1ccccc1)N/N=C/c1ccc(Oc2ccc(Br)cc2)cc1 | growth | 84.3
O=C(CN1CCN(c2cc(=O)[nH]c3ccc(F)cc23)CC1)N(c1ccccc1)c1ccccc1 | growth | 99.8
COc1cc(-c2nc(-c3ccccc3)[nH]c2-c2ccnc(NCCCNS(=O)(=O)c3cccc(F)c3)n2)ccc1F | growth | 89.1
CC1=Cc2ccccc2OC12C=Cc1ccccc1O2 (centres undefined) | growth | 98.8
CC1=C(C)C(=O)C(Nc2cccc(C(F)(F)F)c2)=C(Br)C1=O | growth | 97.7

input: Give recorded growth. CC1(C)CC[C@]23CC[C@]4(C)[C@H](CC[C@@H]5[C@@]6(C)CC[C@H](N)C(C)(C)[C@@H]6CC[C@]54C)[C@H]2[C@H]1OC3
output: 80.9

input: Give recorded growth. CCOC(=O)c1ccc(NC2=C(Cl)C(=O)c3nc(C)ccc3C2=O)cc1
output: 70.8

input: Give recorded growth. N#Cc1c(-c2cccs2)cc(-c2cnccn2)nc1SCC(=O)N/N=C/c1ccccc1
output: 56.4

input: Give recorded growth. COc1ccc2c(c1)c(-c1nn3cc(-c4ccncc4)nc3s1)cn2C
output: 79

input: Give recorded growth. CC(=O)c1cc(C(=O)N2c3ccccc3Sc3ccccc32)n2c1ccc1ccccc12
output: 67.5

input: Give recorded growth. NC1[C@H]2CN(c3cnc(C(=O)Nc4cc(F)cc5cccnc45)cn3)C[C@@H]12 (some centres undefined)
output: 87.5

input: Give recorded growth. CCCCN1C(=O)/C(=c2\sc3n(c2=O)C2C(NN=3)N(CC)C(=O)N2CC)c2cc(C)ccc21 (centres undefined)
output: 87

input: Give recorded growth. COc1ccc2[nH]cc(/C=N/Nc3ccnc4cc(Cl)ccc34)c2c1
output: -60.7

input: Give recorded growth. Fc1cc(F)cc(NNC(=S)c2ccccc2)c1
output: 55

input: Give recorded growth. COc1ccc2c(c1)C=CC1(O2)Oc2ccc(OC)cc2C=C1C (centres undefined)
output: 54.4

input: Give recorded growth. Cc1[nH]c(C(=O)Nc2ccc(C(=O)NCC3CCNCC3)cc2OC(C)C)c(Cl)c1Cl
output: 76.6

----------
test system: 786-0 renal; assay: NCI-60 one-dose screen, 48 h (100 = growth as untreated, 0 = no growth, -100 = all killed); conditions: 10 µM unless noted
Compounds without any hit were thinned out: in the full panel of roughly 83,000, 20% have a hit. Activity calls are given as the source filed them. How the source made its calls: active means growth percent below 10; inactive means the rest.
Parameter measured: growth

Compound | Parameter measured | Experimental value
Brc1cc(-c2cc(-c3ccc4c(c3)OC=CO4)[nH]n2)cs1 | growth | 106% (inactive)
O=C1/C(=C/C=C/c2ccco2)SC(=S)N1Cc1ccccc1 | growth | 101% (inactive)
CNC(=O)c1cc(Oc2ccc3c(c2)sc2nc(-c4ccc(N(C)C)cc4)cn23)ccn1 | growth | 31% (inactive)
NCCNC(=O)c1cccc(COc2ccccc2NC(=O)c2cc(Br)c(Br)[nH]2)c1 | growth | 78.9% (inactive)
CCc1cc(O)ccc1Nc1cc(-c2ccc(-n3cccn3)cc2)[nH]n1 | growth | 84.9% (inactive)

input: Give recorded growth. CC(=O)N1N=C(c2cc3ccccc3oc2=O)CC1c1cn(-c2ccccc2)nc1-c1ccc(C)cc1 (stereo not given)
output: 103% (inactive)

input: Give recorded growth. CC1=C(C)C(=O)C(Nc2cccc(C)c2)=C(Br)C1=O
output: 107% (inactive)

input: Give recorded growth. Cc1ccccc1N1CCN(C2=C(Cl)C(=O)c3ncccc3C2=O)CC1
output: 91% (inactive)

input: Give recorded growth. CN1CCN(c2ccc(Nc3nc(NCCNS(=O)(=O)c4ccccc4)c4sccc4n3)cc2)CC1
output: 99.2% (inactive)

input: Give recorded growth. Cc1ccc2c(n1)C(=O)C(Cl)=C(Nc1ccc(C#N)cc1)C2=O
output: 80.4% (inactive)
